Reported PSV neutralization IC50 values are given for each entry in this list.
Target: SARS-CoV-2 spike on pseudovirus or live virus (USA-WA1/2020, WT) (SARS-CoV-2, UniProt P0DTC2 14-1273)
Test: cell-based or functional assay

[
  {
    "binder": "L12.bP12H09 (antibody, V domains shown, human IgG1) VH: QVQLVQSGAEVKKPGASVKVSCKASGYIFSGYYTHWVRQAPGQGLEWMGWISPDSGGTNYAQKFQGRVTMTRDTSITTAYVELSGLRSDDTAVYYCARGPRYSGTYFDYWGQGTLVTVSS VL: QSALTQPASVSGSPGQSITISCTGTSSDVGGYNHVSWYQQHPGKAPKLMIYDVSNRPSGVSNRFSGSKSGNTASLTISGLQAEDEADYYCSSYTSSSAQLFGGGTKLTVL",
    "PSV neutralization IC50 / µg/mL": 0.062
  },
  {
    "binder": "L12.cP09C07 (antibody, V domains shown, human IgG1) VH: QVQLVQSGAEVKKPGASVKVSCKASGYIYSGYFMHWVRQAPGQGLEWMGWISPDSGGANYAQTFQGRVTMTRDTSTTTAHMELSRLRSDDTAVYYCARGPRYSGTHFDYWGQGTLVTVSS VL: QSALTQPASVSGSPGQSLTISCTGTSSDVGGYNYVSWYQQHPDKAPKLMIYDVNNRPSGVSNRFSGSKSGSTASLTISGLQAEDEADYYCSSYAGSSTQVFGGGTKLIVL",
    "PSV neutralization IC50 / µg/mL": 0.085
  },
  {
    "binder": "L12.cP09D03 (antibody, V domains shown, human IgG1) VH: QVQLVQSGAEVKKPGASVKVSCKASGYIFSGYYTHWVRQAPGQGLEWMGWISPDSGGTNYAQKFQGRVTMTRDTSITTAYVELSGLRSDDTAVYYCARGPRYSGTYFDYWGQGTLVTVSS VL: QSVLTQPASVSGSPGQSITISCTGTSSDVGGYNYVSWYQQHPGKVPKLMIYDVSNRPSGVSNRFSGSKSGNTASLTISGLQAEDEADYYCSSYTSSSAQLFGGGTKLTVL",
    "PSV neutralization IC50 / µg/mL": 0.351
  }
]
